Tested on: U251 CNS
Recorded measurements of GI50, one per entry

COc1ccc(OC)c(Cn2cc3c(c2)-c2oncc2CC3)c1 : 3.54 µM

Given CCn1c2ccccc2c2cc(/C=C(/C#N)C(N)=O)ccc21 , report its GI50 on U251 CNS.
5.45 µM

Given COc1ccc2c(c1OC)C(=O)OC2C1c2c(c([N+](=O)[O-])c3c(c2OC)OCO3)CCN1C (stereo not drawn) , report its GI50 on U251 CNS.
> 100 µM

====

System: HT29 colon
protocol_details: NCI tumour cell line growth inhibition, 48 h
Recorded measurements of TGI, one per entry

In the examples that follow, each entry is paired with its recorded TGI.
CC(C)=CCC/C(C)=C/CC/C(C)=C/CC/C=C(\C)CC/C=C(\C)CCC(=O)Nc1ccn(C2OC(CO)C(O)C2(F)F)c(=O)n1 (stereo unspecified) : 48.9 µM
CCO/C=C1\N=C(c2ccccc2Br)OC1=O : > 100 µM
CN(C)c1ccc(N=Nc2ccncc2)cc1 : > 100 µM
O=C(/C=C/c1csc(-c2ccccc2)n1)NCc1ccc(C(=O)NCc2ccccc2)cc1 : > 100 µM

Quick one: give measured TGI for CCOC1=C2N=C(Cc3ccccc3F)N=C2C(=O)c2ccccc21
> 100 µM

Quick one: give measured TGI for Cc1csc2nc(-c3ccc(Cl)c([N+](=O)[O-])c3)c(/C=N/N=C(N)N)n12
3.26 µM
